Exercise: state measured viability, T/C for each of the compounds provided.
# Test system: 171881-019-R-J1-PDC multicell spheroid viability
# ASSAY_PROCEDURE: Anticancer human tumor 171881-019-R-J1-PDC patient-derived invasive breast carcinoma cell line growth inhibition [IpAb]
# CONDITION_SUMMARY: second compound 1 µM; first compound 0.0316 µM; stronger effect = lower value
# value in %; strip the unit string

q: Request: viability, T/C, test system 171881-019-R-J1-PDC multicell spheroid viability, entry Cn1nccc1Nc1nccc(-c2ccn(C(CO)c3ccc(Cl)c(F)c3)c(=O)c2)n1 (centres undefined) + CCN1CCN(Cc2ccc(Nc3ncc(F)c(-c4cc(F)c5nc(C)n(C(C)C)c5c4)n3)nc2)CC1
a: 161

q: Same lookup for C=CC(=O)N1CCN(c2nc(=O)n(-c3c(C)ccnc3C(C)C)c3nc(-c4c(O)cccc4F)c(F)cc23)C(C)C1 (centres undefined) + CC(C)NCC(C(=O)N1CCN(c2ncnc3c2C(C)CC3O)CC1)c1ccc(Cl)cc1 , please.
a: 24.6

q: Same lookup for CC(C)n1nc(-c2ccc3oc(N)nc3c2)c2c(N)ncnc21 + CC(C)NCC(C(=O)N1CCN(c2ncnc3c2C(C)CC3O)CC1)c1ccc(Cl)cc1 , please.
a: 1.26

q: Same lookup for C=CCn1c(=O)c2cnc(Nc3ccc(N4CCN(C)CC4)cc3)nc2n1-c1cccc(C(C)(C)O)n1 + CC(C)NCC(C(=O)N1CCN(c2ncnc3c2C(C)CC3O)CC1)c1ccc(Cl)cc1 , please.
a: 26.4

q: Same lookup for Cc1nc(NC(=O)N2CCCC2C(N)=O)sc1-c1ccnc(C(C)(C)C(F)(F)F)c1 (centres undefined) + CCN1CCN(Cc2ccc(Nc3ncc(F)c(-c4cc(F)c5nc(C)n(C(C)C)c5c4)n3)nc2)CC1 , please.
a: 137

q: Same lookup for CC1(C)CCC(CN2CCN(c3ccc(C(=O)NS(=O)(=O)c4ccc(NCC5CCOCC5)c([N+](=O)[O-])c4)c(Oc4cnc5[nH]ccc5c4)c3)CC2)=C(c2ccc(Cl)cc2)C1 + CCN1CCN(Cc2ccc(Nc3ncc(F)c(-c4cc(F)c5nc(C)n(C(C)C)c5c4)n3)nc2)CC1 , please.
a: 138

q: Same lookup for Cn1ncnc1[C@H]1c2n[nH]c(=O)c3cc(F)cc(c23)N[C@@H]1c1ccc(F)cc1 + CCN1CCN(Cc2ccc(Nc3ncc(F)c(-c4cc(F)c5nc(C)n(C(C)C)c5c4)n3)nc2)CC1 , please.
a: 137

q: Same lookup for CC1(C)CCC(CN2CCN(c3ccc(C(=O)NS(=O)(=O)c4ccc(NCC5CCOCC5)c([N+](=O)[O-])c4)c(Oc4cnc5[nH]ccc5c4)c3)CC2)=C(c2ccc(Cl)cc2)C1 + CC(C)NCC(C(=O)N1CCN(c2ncnc3c2C(C)CC3O)CC1)c1ccc(Cl)cc1 , please.
a: 37.2

q: Same lookup for Cc1nc(NC(=O)N2CCCC2C(N)=O)sc1-c1ccnc(C(C)(C)C(F)(F)F)c1 (centres undefined) + CC(C)NCC(C(=O)N1CCN(c2ncnc3c2C(C)CC3O)CC1)c1ccc(Cl)cc1 , please.
a: 24.8

====

# Tested on: 171881-019-R-J1-PDC multicell spheroid viability
# ASSAY_PROCEDURE: Anticancer human tumor 171881-019-R-J1-PDC cell line growth inhibition [IpAb];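 further: spheroids exposed to the agents for seven days before readout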
# CONDITION_SUMMARY: second compound 0.316 µM; first compound 0.1 µM; stronger effect = lower value
Lab note: anything with viability, T/C below 90% is marked fulfilled; values at 90% or higher are marked not fulfilled.

q: # TODO verify viability, T/C < 90% strictly for this compound: C=CCn1c(=O)c2cnc(Nc3ccc(N4CCN(C)CC4)cc3)nc2n1-c1cccc(C(C)(C)O)n1 + CC(C)NCC(C(=O)N1CCN(c2ncnc3c2C(C)CC3O)CC1)c1ccc(Cl)cc1
a: fulfilled

q: Same lookup for CCCS(=O)(=O)Nc1ccc(F)c(C(=O)c2c[nH]c3ncc(-c4ccc(Cl)cc4)cc23)c1F + CCN1CCN(Cc2ccc(Nc3ncc(F)c(-c4cc(F)c5nc(C)n(C(C)C)c5c4)n3)nc2)CC1 , please.
a: not fulfilled

q: Same lookup for Cc1nc(NC(=O)N2CCCC2C(N)=O)sc1-c1ccnc(C(C)(C)C(F)(F)F)c1 (stereo not given) + CC(C)NCC(C(=O)N1CCN(c2ncnc3c2C(C)CC3O)CC1)c1ccc(Cl)cc1 , please.
a: fulfilled

q: Same lookup for C=CC(=O)N1CCN(c2nc(=O)n(-c3c(C)ccnc3C(C)C)c3nc(-c4c(O)cccc4F)c(F)cc23)C(C)C1 (stereo not given) + CC(C)NCC(C(=O)N1CCN(c2ncnc3c2C(C)CC3O)CC1)c1ccc(Cl)cc1 , please.
a: fulfilled

The reported measurements were obtained from PubChem BioAssay AID2060342.
